// provenance: the nanobody polyreactivity screen of Harvey et al. (2022)

assay: yeast display, Sf9 membrane polyspecificity reagent, FACS + sequencing; frameworks hold sequencing errors
TEST_READOUT: polyreactivity (PSR sort gate)

In the examples that follow, each entry is paired with its recorded polyreactivity (PSR sort gate).
>>> test_value("QVQLVESGGGLVQAGGSLRLSCAASGRISFYYAMGWYRQAPGKERELVAAISRGGSTYYADSVKGRFTISRDNAKNTVYLQMNSLKPEDTAVYYCAATYSGVDTPSGYDYWGQGTQVTVSS")
"low polyreactivity"
>>> test_value("QVQLVESCGGLVQAGGSLRISCAASGIIFHLYAMGWYRQAPGKQRELVAAISWNGSSTYYADSVKGRFTISRDYAKNTVYLQRNSLKPEDTAVYYCAASYGYFEDYGYWGHGTQVTVSS")
"low polyreactivity"
>>> test_value("QVQLVESGGGLVQAGASLRLSCAASGFTFDSYAMGWYRQAPGKDRELVAVISATGAITYYADSVKGRFTISRDNAKNTVYLPMNSLKPEDTAVYYCAVQVSWSYYRYGYWGQGTQVTVSS")
"low polyreactivity"
>>> test_value("QVQHVESGGGLVQAGCSLRLSCAASGSIFWRYAMGWSRQAHGKEREFVAAISGSGVRTSYADSVKGRFTISRDNAKNTVYLQMNSLIPEDTAVYYCAARVSYRYTSAAYEYWGQGTQVTVSS")
"high polyreactivity"

From here, focus on the item given below.
Answer with the recorded polyreactivity (PSR sort gate) of QVQLVESGGGLVQAGGSLRLSCAASGRIFYVYAMGWYRQAPGKERELVAGIRSGGSTNYADSVKGRFTISRDNAKNTVYLLMNSLKPEDTAVYYCAVQSYGALSPQLVYRRYDYWGQGTQVTVSS only.
high polyreactivity

---

assay: yeast display, Sf9 membrane polyspecificity reagent, FACS + sequencing; frameworks hold sequencing errors
TEST_READOUT: polyreactivity (PSR sort gate)

>>> test_value("QVQLVESGGGLVQAGGSLRLSCAASGRTFAIYTMVWSRQAPGKERELVATISGSAGNTYYADSVKGRFTISRDNAKNTVYLQMNSLKPEDTAVYNCAARQRKARQIVLLDYWGQGTQVTVSS")
"high polyreactivity"
>>> test_value("QVQLVESGGGLVQAGGSLRLSSAASGRTFAVYAMGWYRQAPGKERELVAAISSGGSTYYADSVKGRFTISRDNAKNTVYLPMNSLKPEDTAVYYCTARWGYRRGDWGQGTQVTVSS")
"high polyreactivity"
>>> test_value("QVQLVDSGGGLVQAGGSLRLSCAASGRTFYPYVMGWYRQPPGKERELVADISWSGGRTYYADSVKGRFTISRDNAKNTVYLQMNSLKPEDTAVYYCAAGYRRRYNYWGQGTQVTVSS")
"high polyreactivity"

---

test: yeast display, Sf9 membrane polyspecificity reagent, FACS + sequencing; frameworks hold sequencing errors
TEST_READOUT: polyreactivity (PSR sort gate)

In the examples that follow, each entry is paired with its recorded polyreactivity (PSR sort gate).
>>> test_value("QVQLVESGGGLVQAGRSHRLSCAASGFTFFDNAMGWYRQAPGKERELVAAITWSDGSTYYADSVKGRFTISRDNAKNTVYLQMNSLKPEDTAVYYCNKRGWWDLRHDYWGQGTHVTVSS")
"low polyreactivity"
>>> test_value("QVQLVESGGGLVQAGGSLRLSCAASGRIFWPYAMGWYRQAPGKERELVAAISRGGSTYYADSVKGRFTISRDNAKNTVYLQINSLKPEDTAVYYCAVAFRGSYRPAYYYWRQGTQVTVSS")
"high polyreactivity"
>>> test_value("QVELVESGGGLVQAGGSLRLSCAASGITLRHYTMGWYRQAPGKVRELVATISRSGGRTYYADSVKGRFTISRDIAKNTVYLQMNSLKPEDTAFYYCARQFWRHWYGYWGQGTQVTVSS")
"high polyreactivity"
>>> test_value("QVQLVDSGGGVVQAGGSLLLSCPASGLIIKVYAMGWYRQAPGKERELVAAITYSGGSTDYADSVKGRFTISRDNAKNTVFLQMISLKPEDTAVYYCNVEKVGHVNSYGYDYWGQGTQVTVSS")
"low polyreactivity"
>>> test_value("QVQLVESGGGLVQAGGSLRLSCAASGYIIRGYVMGWYRQAPGKERELVAAITSRGDSTYYADSVKGRFTISRDNAKNTVYLQMNSLIPEDTAVYYCYFYFRRQYEHEYWGQGTQVTVSS")
"high polyreactivity"

From here, focus on the item given below.
Answer with the recorded polyreactivity (PSR sort gate) of QDQLVVSGGGLVQAGGSHSLSCAASGSIFIGYSMGWYRQAPGQERELVAAITSSGRTNYADSVKGRFTISRDNAKNTVYLQMTILKPEDTAVYYCNAEGYQFFTFDYWGQGTQVTVSS only.
low polyreactivity

---

test: yeast display, Sf9 membrane polyspecificity reagent, FACS + sequencing; frameworks hold sequencing errors
TEST_READOUT: polyreactivity (PSR sort gate)

In the examples that follow, each entry is paired with its recorded polyreactivity (PSR sort gate).
>>> test_value("QVQLVESGGGLVQAGGSLRLSCAASGRTFYYYVKGWDRQAPGKERELVAAITIRGGSTYYADSVKGRFTNSRDNAKNTVYLQMNSLKPEDTAVYYCNARGGSSTYGNYYWGQGTQVTVSS")
"low polyreactivity"
>>> test_value("QVQLLESGGGLVQAGGSLRLSCAASGRTFWAYAMGWYRQAPGKERELVAAIDGGDGSTYYADSVKGRFTISRDYAKNTVYLQMNSLKPEDTAVYYCAAETPSGYYPQQYDYYLGQGTQVTVSS")
"high polyreactivity"
>>> test_value("QVQLVESGGGLVQAGGSLRLSCAASGSIFTDNAMGWYRQAPGKERELVAAITGRGGNTYYADSVKGRFPISRDIAKNPVYLQMNSLKPEDTAVYYCAARIFRTRKPLGYWGQGTQVTVSS")
"high polyreactivity"
>>> test_value("QVQLVESGGGLVQAGGSLRLSCAASARIYTTYAMGWYRQAPGKERELVASITTTDTRTYADSVKGRFTISRDNAKNTVYLQMNSLKPEDTAVYYCAKDRLNKGRYYRGASDYWGLGTQVTVSS")
"low polyreactivity"
>>> test_value("QVQLVESGGGLVQAGGSLRLSCAASGFTFRKYAMGWYRQAPGKERELVAVINIVGSTYYADSVKGRFTISRDNAKNTVYLQMNSRKPEDTAVYYCAADWSYLLKYYWYGGFNYWGQGTQVTVSS")
"high polyreactivity"

Answer with the recorded polyreactivity (PSR sort gate) of QVQLVESGGGLVQAGGSLRLSCAASGTFRRYPMGWYRQEPGKERELVAAITSSGGTYYADSVKGRFTISRDNAKHTVYLQMNSLKPEDTALYYCAARDYWSRYFRPGIVGWHDYWGQGTQVTVSS only.
high polyreactivity

Answer with the recorded polyreactivity (PSR sort gate) of QVQLVESGGGLVQAGGSLRLSSAASGSTFSLNAMGWYRQAPGKERELVASISSGDSTNYADSVKGRFTISLDNAKNTVYLQMNSLKPEDTAVYYCAADGWVLSLARGYYTYDYWGLGTQVTVSS only.
low polyreactivity

Answer with the recorded polyreactivity (PSR sort gate) of QVQLVESGGGLVQAGGSLRLSCAASGRIFQPNVMGWYRQAPGKERELVAAIRSGSSTYYADSVKGRFTISRDNAKNTVYLQMNSLKPEDTAVYYCATRRAGRGYDYWGQGTQVTVSS only.
high polyreactivity

Answer with the recorded polyreactivity (PSR sort gate) of QVQLVESGGGLVHAGGSLRLSCAASGRIFTWNAMGWYRQAPGKERELVARISSGTRTNYADSVKGRFTISRDNAKNTVYLQMNSLKPEDTAVYYCAAGYYYGYPPRDYWGQGTQVTVSS only.
high polyreactivity

Answer with the recorded polyreactivity (PSR sort gate) of QVQLVESGGGLVQAGGSLRLSCAASGRIFGDNAMGWYRQAPGKERELVAAITNRGGTTYYADSVKGRFTISRDNAKNTVYLQMNSLRPEDTAVYYCNKTPDRHRRYFGYGYWGQGTQVTVSS only.
low polyreactivity

Answer with the recorded polyreactivity (PSR sort gate) of QVQLVESGGCLVQAGGSLRLSCASSGSTFHSYAMGWYRQAPGKERELVAAISRSGGSTYYADSVKGRFTISRDNAKNTVYLQMNSLKPEDTAVYYCAARDLQFSGYYYWGQGTQVTVSS only.
high polyreactivity

---

experiment: yeast display, Sf9 membrane polyspecificity reagent, FACS + sequencing; frameworks hold sequencing errors
TEST_READOUT: polyreactivity (PSR sort gate)

>>> test_value("QVQIVESGGGLVQARGSLRLSCAASGFIFGSYASGWYRQAPGKERELVAAISWNGDSTYYADSVKGRFTISRDNAKITVYLQMNSLKPEDTAVYYCNAVDVFLYQTDGLGDYWGQGTQVTVSS")
"low polyreactivity"
>>> test_value("QVQLVESGGGLVQAGGSLRLSCAASGSIFHPYTMGWYRQAPGKERELVAGISQSSDSTYYADSVKGRFTISRDNAKNTVYLQMNSLKPEDTAVYYCNRDNDWPLSVVEVDYWGQGTQVTVSS")
"low polyreactivity"
